pIC50: −log10 of the molar value.
pIC50, PBP2x* (Streptococcus pneumoniae): measured values
Attribute measured: pIC50

Structure notation: CCN1CCN(C(=O)N[C@@H](C(=O)N[C@@H]2C(=O)N3C(C(=O)O)=C(CSc4nnnn4C)CS[C@H]23)c2ccc(O)cc2)C(=O)C1=O
Attribute measured: pIC50
Reported result: 6.81

Structure notation: NC(=O)c1cc[n+](CC2=C(C(=O)[O-])N3C(=O)[C@@H](NC(=O)Cc4cccs4)[C@H]3SC2)cc1
Attribute measured: pIC50
Reported result: 7.48

Structure notation: CO/N=C(\C(=O)N[C@@H]1C(=O)N2C(C(=O)O)=C(CSC(=O)c3ccco3)CS[C@H]12)c1csc(N)n1
Attribute measured: pIC50
Reported result: 8.30

###

Biological target: UniProt:P14677
Experiment: direct competitive ELISA, binding affinity of β-lactams to PBP2x*

Structure notation: Cc1onc(-c2ccccc2)c1C(=O)N[C@@H]1C(=O)N2[C@@H]1SC(C)(C)[C@@H]2C(=O)O
affinity to PBP2x* (in words): relatively poor affinity

Structure notation: Cc1onc(-c2c(Cl)cccc2Cl)c1C(=O)N[C@@H]1C(=O)N2[C@@H]1SC(C)(C)[C@@H]2C(=O)O
affinity to PBP2x* (in words): relatively poor affinity

###

Please consider the recorded IC50 for PBP2x* (Streptococcus pneumoniae) in what follows.
Attribute measured: IC50 (nM)

Compound: CO/N=C(\C(=O)N[C@@H]1C(=O)N2C(C(=O)[O-])=C(C[N+]3(C)CCCC3)CS[C@H]12)c1csc(N)n1 [CFP, Cefepime]
Reported result: 15.2
--
Compound: CC1(C)S[C@@H]2[C@H](NC(=O)[C@H](N)c3ccc(O)cc3)C(=O)N2[C@H]1C(=O)O
Reported result: 18.7
--
Compound: Cc1onc(-c2c(Cl)cccc2Cl)c1C(=O)N[C@@H]1C(=O)N2[C@@H]1SC(C)(C)[C@@H]2C(=O)O
Reported result: 32.6
--
Compound: CO/N=C(\C(=O)N[C@@H]1C(=O)N2C(C(=O)O)=C(CSc3nc(=O)c(=O)[nH]n3C)CS[C@H]12)c1csc(N)n1
Reported result: 4.24
--
Compound: CC1(C)S[C@@H]2[C@H](NC(=O)[C@H](NC(=O)N3CCNC3=O)c3ccccc3)C(=O)N2[C@H]1C(=O)O
Reported result: 14.5
--
Compound: CC(=O)OCC1=C(C(=O)O)N2C(=O)[C@@H](NC(=O)CSc3ccncc3)[C@H]2SC1
Reported result: 14.3
--
Compound: CCN1CCN(C(=O)N[C@@H](C(=O)N[C@@H]2C(=O)N3[C@@H]2SC(C)(C)[C@@H]3C(=O)O)c2ccccc2)C(=O)C1=O
Reported result: 15
--
Compound: CC1(C)S[C@@H]2[C@H](NC(=O)[C@H](N)c3ccccc3)C(=O)N2[C@H]1C(=O)O
Reported result: 22.3
--
Compound: CO/N=C(\C(=O)N[C@@H]1C(=O)N2C(C(=O)O)=C(COC(C)=O)CS[C@H]12)c1csc(N)n1
Reported result: 10.4
--
Compound: Cc1nnc(SCC2=C(C(=O)O)N3C(=O)[C@@H](NC(=O)Cn4cnnn4)[C@H]3SC2)s1
Reported result: 53.6
--
Compound: Cc1onc(-c2ccccc2)c1C(=O)N[C@@H]1C(=O)N2[C@@H]1SC(C)(C)[C@@H]2C(=O)O
Reported result: 25.1
--
Compound: CC1(C)S[C@@H]2[C@H](NC(=O)Cc3ccccc3)C(=O)N2[C@H]1C(=O)O
Reported result: 10.6
--
Compound: Cc1onc(-c2ccccc2Cl)c1C(=O)N[C@@H]1C(=O)N2[C@@H]1SC(C)(C)[C@@H]2C(=O)O
Reported result: 173
--
Compound: C=CC1=C(C(=O)O)N2C(=O)[C@@H](NC(=O)/C(=N\OCC(=O)O)c3csc(N)n3)[C@H]2SC1
Reported result: 64.7

Values from paper PMC8470104
